The reported measurements were obtained from patent US10729738B2.

target: penetratin (AntP) peptide (Drosophila melanogaster); construct: C-terminal amide (CONH2); made in house; host or cells: chemical synthesis (Fmoc solid-phase peptide synthesis); experiment: Conjugation of activated disulfide-MMAE molecules to penetratin (AntP) peptide (% Product); conditions: peptide 25 uM, disulfide MMAE 5 equivalents, 75 mM Tris pH 8.5 and 10% DMF, ~16 hours at room temperature, UV peak area
Where a SMILES comes first, the peptide text is derived from it. [ ]: non-standard residue; d: D form. The star is where a group is joined. X14 = CC(C)(COC(=O)*)SSc1nc2cc([N+](=O)[O-])ccc2[nH]1; Dolaproine = CO[C@@H]([C@@H]1CCCN1)[C@@H](C)C(=O)O; Dil = CC[C@H](C)[C@H](NC)[C@@H](CC(=O)O)OC; X19 = Cn1cc(C(=O)O)nc1SSC(C)(C)COC(=O)*; X5 = CC(C)(COC(=O)*)SSc1nc2ncccc2[nH]1; X2 = C[C@@H](N*)[C@@H](O)c1ccccc1; NMeV = CN[C@H](C(=O)O)C(C)C
reported_endpoint: AntP % P (penetratin (AntP) peptide % product) (%)
Answer with a number only, understood to be in %.

[[record]]
molecule = "CC[C@H](C)[C@@H]([C@@H](CC(=O)N1CCC[C@H]1[C@H](OC)[C@@H](C)C(=O)N[C@H](C)[C@@H](O)c1ccccc1)OC)N(C)C(=O)[C@@H](NC(=O)[C@H](C(C)C)N(C)C(=O)OCC(C)(C)SSc1nc2ncccc2[nH]1)C(C)C (X5-[NMeV]V[Dil][Dolaproine]-X2)"
experimental_target = "penetratin (AntP) peptide (Drosophila melanogaster)"
numeric_value = 12

[[record]]
molecule = "CC[C@H](C)[C@@H]([C@@H](CC(=O)N1CCC[C@H]1[C@H](OC)[C@@H](C)C(=O)N[C@H](C)[C@@H](O)c1ccccc1)OC)N(C)C(=O)[C@@H](NC(=O)[C@H](C(C)C)N(C)C(=O)OCC(C)(C)SSc1nc(C(=O)O)cn1C)C(C)C (X19-[NMeV]V[Dil][Dolaproine]-X2)"
experimental_target = "penetratin (AntP) peptide (Drosophila melanogaster)"
numeric_value = 4.9


Shifting focus to the molecule that follows.
Problem: For CC[C@H](C)[C@@H]([C@@H](CC(=O)N1CCC[C@H]1[C@H](OC)[C@@H](C)C(=O)N[C@H](C)[C@@H](O)c1ccccc1)OC)N(C)C(=O)[C@@H](NC(=O)[C@H](C(C)C)N(C)C(=O)OCC(C)(C)SSc1nc2cc([N+](=O)[O-])ccc2[nH]1)C(C)C (X14-[NMeV]V[Dil][Dolaproine]-X2) , what is its reported AntP % P (penetratin (AntP) peptide % product)?
Result: 26

###

assay: In vitro disulfide cleavage and immolation by incubation with cysteine or glutathione (LC/MS); type: physicochemical; details: 200 μM cysteine, pH 7.0, 37° C., 4 h
Entries are sorted into classes by Percentage of all products as follows: low value = under 2%, medium value = from 2% up to 10%, high value = 10% and over

Example results:
[[record]]
compound = "C=C1C[C@H]2C=Nc3cc(OCCCCCOc4cc5c(cc4OC)C(=O)N4CC(=C)C[C@H]4C(O)N5C(=O)OCC4(SSC[C@H](N)C(=O)O)CC4)c(OC)cc3C(=O)N2C1 (stereo partly drawn) [Compound 4a]"
category_label = "high value"

[[record]]
compound = "C=C1C[C@H]2C=Nc3cc(OCCCCCOc4cc5c(cc4OC)C(=O)N4CC(=C)C[C@H]4C(O)N5C(=O)OCC4(SSc5ccc([N+](=O)[O-])cn5)CC4)c(OC)cc3C(=O)N2C1 (stereo partly drawn) [Compound 2]"
category_label = "high value"

[[record]]
compound = "C=C1C[C@H]2C=Nc3cc(OCCCCCOc4cc5c(cc4OC)C(=O)N4CC(=C)C[C@H]4C(O)N5C(=O)OCC4(SSC[C@H](N)C(=O)O)CCC4)c(OC)cc3C(=O)N2C1 (stereo partly drawn) [Compound 12a]"
category_label = "high value"

[[record]]
compound = "C=C1CC2C=Nc3cc(OCCCCCOc4cc5c(cc4OC)C(=O)N4CC(=C)CC4C(O)N5C(=O)OCC(C)SSCC(N)C(=O)O)c(OC)cc3C(=O)N2C1 (stereo not drawn) [Compound 3a]"
category_label = "low value"

[[record]]
compound = "C=C1C[C@H]2C=Nc3cc(OCCCCCOc4cc5c(cc4OC)C(=O)N4CC(=C)C[C@H]4C(O)N5C(=O)OCC4(S)CCC4)c(OC)cc3C(=O)N2C1 (stereo partly drawn) [Compound 13]"
category_label = "low value"

[[record]]
compound = "C=C1C[C@H]2C=Nc3cc(OCCCCCOc4cc5c(cc4OC)C(=O)N4CC(=C)C[C@H]4C(O)N5C(=O)OCC4(SSc5ccc([N+](=O)[O-])cn5)CCC4)c(OC)cc3C(=O)N2C1 (stereo partly drawn) [Compound 11]"
category_label = "medium value"

[[record]]
compound = "C=C1CC2C=Nc3cc(OCCCCCOc4cc5c(cc4OC)C(=O)N4CC(=C)CC4C(O)N5C(=O)OCC(C)S)c(OC)cc3C(=O)N2C1 (stereo not drawn) [Compound 6]"
category_label = "medium value"

[[record]]
compound = "C=C1C[C@H]2C=Nc3cc(OCCCCCOc4cc5c(cc4OC)C(=O)N4CC(=C)C[C@H]4[C@H](O)N5C(=O)OCC4(S)CC4)c(OC)cc3C(=O)N2C1 [Compound 7]"
category_label = "high value"


From here, focus on the item given below.
Problem: Band for the recorded Percentage of all products of C=C1CC2C=Nc3cc(OCCCCCOc4cc5c(cc4OC)C(=O)N4CC(=C)CC4C(O)N5C(=O)OCC(C)SSc4ccc([N+](=O)[O-])cn4)c(OC)cc3C(=O)N2C1 (stereo not drawn) [Compound 1] ?
Result: low value
